Sourced from BigSolDB 2.1

Conditions: in 1,4-dioxane, 323.55 K
RESULT_TYPE: solubility (mole fraction)

INSERT INTO assay_data (molecule, result_type, numeric_result) VALUES
  ('NC(=O)N1c2ccccc2C=Cc2ccccc21', 'solubility (mole fraction)', 0.036);

###

Conditions: in 1,4-dioxane, 298.55 K
RESULT_TYPE: solubility (mole fraction)

INSERT INTO assay_data (molecule, result_type, numeric_result) VALUES
  ('NC(=O)c1ccncc1', 'solubility (mole fraction)', 0.014);

###

Conditions: in 1,4-dioxane, 337.25 K
RESULT_TYPE: solubility (mole fraction)

INSERT INTO measurements (molecule, numeric_result) VALUES
  ('CC(=O)Nc1ccc(O)cc1', 0.043);
